Below: a set of entries, each annotated with reported pKi.
# assay-system: 5-hydroxytryptamine receptor 2A (Homo sapiens, UniProt P28223)
# Sequence (P28223 whole entry): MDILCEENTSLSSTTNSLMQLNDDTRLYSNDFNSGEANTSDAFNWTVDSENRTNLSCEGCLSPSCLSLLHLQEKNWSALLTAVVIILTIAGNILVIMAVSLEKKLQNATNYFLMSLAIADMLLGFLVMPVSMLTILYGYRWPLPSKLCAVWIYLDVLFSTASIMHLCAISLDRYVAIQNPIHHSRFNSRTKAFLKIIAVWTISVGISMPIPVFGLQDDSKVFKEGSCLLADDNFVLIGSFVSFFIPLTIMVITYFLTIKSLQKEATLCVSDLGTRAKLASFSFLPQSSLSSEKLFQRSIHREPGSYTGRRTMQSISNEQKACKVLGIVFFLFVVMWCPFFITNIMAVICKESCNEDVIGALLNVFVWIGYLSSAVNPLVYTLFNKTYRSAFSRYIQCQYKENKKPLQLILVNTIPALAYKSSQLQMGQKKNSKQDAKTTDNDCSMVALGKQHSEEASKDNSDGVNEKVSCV
The meaning of pKi here: minus log10 of the concentration in molar units.

[[record]]
smiles_text = "O=C(C1CCCCC1)N(CCN1CC=C(c2ccccc2)CC1)c1ccccn1"
assay_system = "5-hydroxytryptamine receptor 2A (Homo sapiens, UniProt P28223)"
readout_number = 7.27


With those in mind, consider the next molecule.
Read the entry O=C(C1CCCCC1)N(CCN1CCN(c2ccccc2)CC1)c1ccccn1 and write its reported pKi.
6.74

###

Some molecules, each annotated with its measured pKi.
# assay-system: D(4) dopamine receptor (Homo sapiens, UniProt P21917)
# Sequence (P21917 whole entry): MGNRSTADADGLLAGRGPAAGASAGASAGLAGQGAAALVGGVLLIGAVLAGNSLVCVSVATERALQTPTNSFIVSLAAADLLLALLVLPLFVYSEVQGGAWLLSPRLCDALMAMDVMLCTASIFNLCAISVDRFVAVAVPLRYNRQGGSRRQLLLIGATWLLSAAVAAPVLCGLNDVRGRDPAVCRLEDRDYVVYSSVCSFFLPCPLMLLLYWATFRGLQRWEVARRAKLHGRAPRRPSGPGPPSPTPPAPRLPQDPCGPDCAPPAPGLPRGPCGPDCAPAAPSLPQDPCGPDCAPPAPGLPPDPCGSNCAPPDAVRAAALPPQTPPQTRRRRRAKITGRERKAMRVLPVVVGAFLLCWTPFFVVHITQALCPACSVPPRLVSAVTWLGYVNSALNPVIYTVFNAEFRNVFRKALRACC
# assay-notes: biochemical
# Description: Displacement of [3H]-YM-09151-2 from human cloned D4 receptor expressed in Sf9 cells after 60 mins by liquid scintillation counting
To interpret pKi, take it as minus log10 of a concentration measured in moles per litre.

[[record]]
smiles_text = "O=C(c1cccc2ccccc12)N(CCN1CC=C(c2ccccc2)CC1)c1ccccn1"
readout_number = 6.60

[[record]]
smiles_text = "O=C(c1cccc2ccccc12)N(CCN1CCN(c2ccccc2)CC1)c1ccccn1"
readout_number = 6.26

[[record]]
smiles_text = "COc1ccccc1N1CCN(CCN(C(=O)c2cccc3ccccc23)c2ccccn2)CC1"
readout_number = 7.16


Return pKi for the following molecule: O=C(c1cnc2ccccc2n1)N(CCN1CC=C(c2ccccc2)CC1)c1ccccn1
7.46

Report pKi for O=C(c1ccc2ccccc2c1)N(CCN1CCN(c2ccccc2)CC1)c1ccccn1
6.09

Write down pKi measured for item O=C(C1CCCCC1)N(CCN1CCN(c2ccccc2)CC1)c1ccccn1
6.02

Could you please provide reported pKi for O=C(c1cnc2ccccc2n1)N(CCN1CCN(c2ccccc2)CC1)c1ccccn1 ? Thanks!
7.25

Provide only the value of recorded pKi for O=C(C1CCCCC1)N(CCN1CC=C(c2ccccc2)CC1)c1ccccn1
6.41

Annotate the molecule O=C(c1ccc2ccccc2c1)N(CCN1CC=C(c2ccccc2)CC1)c1ccccn1 with its measured pKi.
6.54

Output measured pKi for this item: COc1ccccc1N1CCN(CCN(C(=O)c2cnc3ccccc3n2)c2ccccn2)CC1
7.82

State, in one line, measured pKi of COc1ccccc1N1CCN(CCN(C(=O)c2ccc3ccccc3c2)c2ccccn2)CC1
6.74

###

# assay-system: Alpha-1A adrenergic receptor (Homo sapiens, UniProt P35348)
# Sequence (P35348 whole entry): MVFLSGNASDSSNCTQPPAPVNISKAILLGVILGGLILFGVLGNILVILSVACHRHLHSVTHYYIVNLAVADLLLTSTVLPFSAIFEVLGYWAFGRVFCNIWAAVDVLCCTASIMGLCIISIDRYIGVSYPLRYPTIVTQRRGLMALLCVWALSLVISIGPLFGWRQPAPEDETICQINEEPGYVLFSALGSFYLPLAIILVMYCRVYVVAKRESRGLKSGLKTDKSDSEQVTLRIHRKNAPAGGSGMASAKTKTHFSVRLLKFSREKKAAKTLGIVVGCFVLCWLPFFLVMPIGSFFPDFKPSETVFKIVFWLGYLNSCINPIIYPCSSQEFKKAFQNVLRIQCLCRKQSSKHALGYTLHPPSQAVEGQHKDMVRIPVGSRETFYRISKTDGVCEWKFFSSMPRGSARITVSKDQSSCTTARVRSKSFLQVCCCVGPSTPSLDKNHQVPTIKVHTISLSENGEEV
reported-property: Ki (nM)
Enter your answer as a number in nM; do not include the unit.

Supply Ki value. Item: O=C(C1CCCCC1)N(CCN1CC=C(c2ccccc2)CC1)c1ccccn1
39

###

# assay-system: 5-hydroxytryptamine receptor 2B (Homo sapiens, UniProt P41595)
# Sequence (P41595 whole entry): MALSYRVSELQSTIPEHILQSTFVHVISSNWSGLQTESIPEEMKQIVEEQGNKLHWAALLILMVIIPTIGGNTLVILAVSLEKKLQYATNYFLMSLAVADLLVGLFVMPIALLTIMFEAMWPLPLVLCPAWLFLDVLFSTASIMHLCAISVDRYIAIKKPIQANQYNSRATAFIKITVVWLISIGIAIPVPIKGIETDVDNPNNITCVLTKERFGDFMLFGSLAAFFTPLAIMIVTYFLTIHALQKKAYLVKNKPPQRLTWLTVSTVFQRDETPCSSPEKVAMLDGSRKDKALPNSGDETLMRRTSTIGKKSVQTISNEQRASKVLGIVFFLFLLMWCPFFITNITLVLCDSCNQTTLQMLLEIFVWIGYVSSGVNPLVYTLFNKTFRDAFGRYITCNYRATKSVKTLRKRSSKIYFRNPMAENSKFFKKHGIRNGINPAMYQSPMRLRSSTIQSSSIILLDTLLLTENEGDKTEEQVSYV
reported-property: pKi
In simple prose, pKi is minus the logarithm base ten of a concentration in moles per litre.

Given O=C(C1CCCCC1)N(CCN1CC=C(c2ccccc2)CC1)c1ccccn1 , report its pKi on 5-hydroxytryptamine receptor 2B (Homo sapiens, UniProt P41595).
6.98

###

# maps each entry to its Ki
# assay-system: 5-hydroxytryptamine receptor 1A (Homo sapiens)

[[record]]
smiles_text = "O=C(C1CCCCC1)N(CCN1CCN(c2ccccc2)CC1)c1ccccn1"
result = "1.85 nM"


Continue with the compound presented below.
For 5-hydroxytryptamine receptor 1A (Homo sapiens), give Ki of the listed compound: O=C(C1CCCCC1)N(CCN1CC=C(c2ccccc2)CC1)c1ccccn1
0.69 nM

###

# assay-system: 5-hydroxytryptamine receptor 1A (Homo sapiens, UniProt P08908)
# Sequence (P08908 whole entry): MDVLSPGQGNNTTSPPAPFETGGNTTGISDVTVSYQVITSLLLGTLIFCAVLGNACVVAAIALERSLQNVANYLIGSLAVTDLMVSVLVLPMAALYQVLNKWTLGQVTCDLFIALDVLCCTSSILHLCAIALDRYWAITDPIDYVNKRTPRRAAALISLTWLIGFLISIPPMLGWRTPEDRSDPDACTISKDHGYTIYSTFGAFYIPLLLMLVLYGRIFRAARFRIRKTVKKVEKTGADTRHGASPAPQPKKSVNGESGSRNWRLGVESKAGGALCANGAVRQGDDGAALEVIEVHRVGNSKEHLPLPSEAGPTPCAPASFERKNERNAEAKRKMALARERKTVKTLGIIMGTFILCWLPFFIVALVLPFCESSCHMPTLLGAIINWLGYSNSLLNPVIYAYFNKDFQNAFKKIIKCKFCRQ
# assay-notes: biochemical
# Description: Displacement of [3H]8-OH-DPAT from human cloned 5-HT1A receptor expressed in CHO cells after 60 mins by liquid scintillation counting
reported-property: Ki
The answer consists of two parts: a number and, after it, its unit.

Return value of Ki for input O=C(c1ccc2ccccc2c1)N(CCN1CC=C(c2ccccc2)CC1)c1ccccn1 , no commentary.
8.36 nM

Could you please provide reported Ki for O=C(c1cccc2ccccc12)N(CCN1CC=C(c2ccccc2)CC1)c1ccccn1 ? Thanks!
14 nM

Identify Ki associated with the compound O=C(c1ccc2ccccc2c1)N(CCN1CCN(c2ccccc2)CC1)c1ccccn1
16.3 nM

Provide only the value of recorded Ki for O=C(c1cnc2ccccc2n1)N(CCN1CC=C(c2ccccc2)CC1)c1ccccn1
8.27 nM

Taken from ChEMBL document CHEMBL2163199.
